Entry source: paper PMC3154933

SYSTEM_UNDER_TEST: T1, Ric-8AΔC492 (rat Ric-8A residues 1–492) (rat, UniProt Q80ZG1 1-492)
T1 construct: Ric-8A, rat, residues 1-492; The His tag is used to adsorb it to IMAC resin in the NMR experiment; also called ΔC492Ric-8A; source: E. coli BL21 (DE3)-RIPL, purified (nickel NTA-agarose, UNO-Q); not shown: His6, N-terminal, kept
T1 sequence (looked up): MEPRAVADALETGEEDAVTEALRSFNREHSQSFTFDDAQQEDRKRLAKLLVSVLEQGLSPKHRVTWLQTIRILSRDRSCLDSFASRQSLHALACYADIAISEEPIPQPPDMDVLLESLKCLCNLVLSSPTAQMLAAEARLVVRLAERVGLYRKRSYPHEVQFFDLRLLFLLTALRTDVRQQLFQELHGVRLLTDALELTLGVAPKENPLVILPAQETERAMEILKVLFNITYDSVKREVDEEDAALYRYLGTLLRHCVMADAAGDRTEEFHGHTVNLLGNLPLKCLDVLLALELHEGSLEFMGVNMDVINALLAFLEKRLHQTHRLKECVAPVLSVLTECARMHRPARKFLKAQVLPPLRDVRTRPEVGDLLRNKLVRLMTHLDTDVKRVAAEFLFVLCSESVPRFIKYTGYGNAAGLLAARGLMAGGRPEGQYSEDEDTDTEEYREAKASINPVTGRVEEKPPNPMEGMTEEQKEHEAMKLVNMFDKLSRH
METHOD: ITC; 250 µM peptide injected into 25 µM Ric-8A in the cell, 25°C, single binding site model
MEASUREMENT_CONDITIONS: both partners purified
No end group written: not given here.
EXPERIMENTAL_ENDPOINT: Kd (µM)

>>> assay_result("DAVTDVIIKNNLKDCGLF-NH2 (Gαi1, rat, the C-terminal 18 residues; source: synthetic peptide (FMOC chemistry, HPLC purified)) [Gαi1C18, amidated peptide of the 18 C-terminal residues of rat Gαi1]")
12
